Source of measurements: patent US20240041832A1

Test: Biodistribution of Beta-Carotene after periorbital skin administration (Example 4)
Type: in vivo, cynomolgus monkeys
Conditions: cynomolgus monkey, upper eyelid, topical; 0.5 h; 492.59 μg/left eye periorbital skin; read-out: Drug Concentration in Tissue, Upper eyelid
Recorded endpoint: concentration at 0.5 h (ng/g)
The answer is to be given in ng/g; state only the numeric part.

## Task Data request, read-out concentration at 0.5 h, for CC1=C(/C=C/C(C)=C/C=C/C(C)=C/C=C/C=C(C)/C=C/C=C(C)/C=C/C2=C(C)CCCC2(C)C)C(C)(C)CCC1
## Result 12600

###

Experiment: Biodistribution of DHA after periorbital skin administration (Example 4)
Type: in vivo, cynomolgus monkeys
Conditions: cynomolgus monkey, left upper eyelid, topical, 7017.66 μg/left eye, 6 h; 7017.66 μg/left eye periorbital skin; read-out: Drug Concentration in Tissue, Left upper eyelid
Recorded endpoint: concentration at 6 h (ng/g)
The answer is to be given in ng/g; state only the numeric part.

## Task Data request, read-out concentration at 6 h, for CC/C=C\C/C=C\C/C=C\C/C=C\C/C=C\C/C=C\CCC(=O)O [DHA, docosahexaenoic acid]
## Result 10700
